Molecular target: KIT (human)
Assay: KINOMEscan competition binding
Conditions: compound 10.0 µM
OBSERVABLE: kinase still bound, per cent of control (%)
Report as a plain number; the unit % is understood.

Any idea what kinase still bound, per cent of control was measured for `O=C1Nc2cc(Br)ccc2/C1=C1/Nc2ccccc2/C1=N\O` ? 0.05

Any idea what kinase still bound, per cent of control was measured for `Cn1cc(C2=C(c3ccc(Cl)cc3Cl)C(=O)NC2=O)c2ccccc21` ? 79

Any idea what kinase still bound, per cent of control was measured for `Cc1cnc(-c2cnc(NCCNc3ccc(C#N)cn3)nc2-c2ccc(Cl)cc2Cl)[nH]1` ? 100

Any idea what kinase still bound, per cent of control was measured for `COc1ccc(CNC(=O)Nc2ncc([N+](=O)[O-])s2)cc1` ? 100

* * *

Target: PIK3CA (human) (UniProt P42336)
Sequence (P42336 whole entry, looked up): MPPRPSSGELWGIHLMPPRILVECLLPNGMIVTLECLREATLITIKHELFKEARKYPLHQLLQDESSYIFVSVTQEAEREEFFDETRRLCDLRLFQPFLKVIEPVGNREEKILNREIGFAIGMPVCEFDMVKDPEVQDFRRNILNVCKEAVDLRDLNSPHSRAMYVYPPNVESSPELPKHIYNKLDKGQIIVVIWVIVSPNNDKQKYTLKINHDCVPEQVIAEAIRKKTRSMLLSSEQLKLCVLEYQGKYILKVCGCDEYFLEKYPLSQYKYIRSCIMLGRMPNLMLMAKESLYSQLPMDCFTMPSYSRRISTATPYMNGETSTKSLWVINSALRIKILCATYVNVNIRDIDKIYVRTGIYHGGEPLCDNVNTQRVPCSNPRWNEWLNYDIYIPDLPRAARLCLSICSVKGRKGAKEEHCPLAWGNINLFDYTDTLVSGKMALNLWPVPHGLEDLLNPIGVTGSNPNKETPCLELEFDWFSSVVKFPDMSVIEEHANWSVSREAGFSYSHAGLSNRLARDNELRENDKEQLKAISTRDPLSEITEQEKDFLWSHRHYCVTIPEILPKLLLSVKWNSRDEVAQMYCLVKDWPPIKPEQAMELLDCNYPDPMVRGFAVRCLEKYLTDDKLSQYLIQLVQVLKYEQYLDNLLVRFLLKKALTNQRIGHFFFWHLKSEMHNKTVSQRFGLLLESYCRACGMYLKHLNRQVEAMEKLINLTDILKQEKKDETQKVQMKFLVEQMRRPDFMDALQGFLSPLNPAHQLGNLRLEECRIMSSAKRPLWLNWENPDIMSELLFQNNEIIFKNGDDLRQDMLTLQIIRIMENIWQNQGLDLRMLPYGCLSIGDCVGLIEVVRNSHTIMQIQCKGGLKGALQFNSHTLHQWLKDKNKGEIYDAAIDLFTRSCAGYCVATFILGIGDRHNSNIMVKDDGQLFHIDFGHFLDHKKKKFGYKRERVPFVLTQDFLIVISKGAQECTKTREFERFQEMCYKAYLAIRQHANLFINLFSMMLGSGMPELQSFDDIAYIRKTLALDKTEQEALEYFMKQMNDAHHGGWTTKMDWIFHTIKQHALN
Assay: KINOMEscan competition binding
Conditions: compound 10.0 µM
OBSERVABLE: kinase still bound, per cent of control (%)
Report as a plain number; the unit % is understood.

Any idea what kinase still bound, per cent of control was measured for `Cn1cc(C2=C(c3ccc(Cl)cc3Cl)C(=O)NC2=O)c2ccccc21` ? 92

Any idea what kinase still bound, per cent of control was measured for `O=C1Nc2cc(Br)ccc2/C1=C1/Nc2ccccc2/C1=N\O` ? 93

Any idea what kinase still bound, per cent of control was measured for `COc1ccc(CNC(=O)Nc2ncc([N+](=O)[O-])s2)cc1` ? 100

Any idea what kinase still bound, per cent of control was measured for `Cc1cnc(-c2cnc(NCCNc3ccc(C#N)cn3)nc2-c2ccc(Cl)cc2Cl)[nH]1` ? 100

* * *

I'd appreciate it if you could supply kinase still bound, per cent of control values for the items below.
Biological target: CSNK1A1L (human) (UniProt Q8N752)
Sequence (Q8N752 whole entry, looked up): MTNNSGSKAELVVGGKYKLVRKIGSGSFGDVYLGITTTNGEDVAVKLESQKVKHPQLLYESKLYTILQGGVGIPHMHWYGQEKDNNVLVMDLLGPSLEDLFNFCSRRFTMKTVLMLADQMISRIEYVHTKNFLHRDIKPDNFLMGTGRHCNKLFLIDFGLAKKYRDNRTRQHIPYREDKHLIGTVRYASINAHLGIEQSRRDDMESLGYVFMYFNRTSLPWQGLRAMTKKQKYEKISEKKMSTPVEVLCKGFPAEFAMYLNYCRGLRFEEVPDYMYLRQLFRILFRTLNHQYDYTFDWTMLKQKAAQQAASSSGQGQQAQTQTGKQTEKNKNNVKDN
Test: KINOMEscan competition binding
Conditions: compound 10.0 µM
Report as a plain number; the unit % is understood.

Any idea what kinase still bound, per cent of control was measured for `Cn1cc(C2=C(c3ccc(Cl)cc3Cl)C(=O)NC2=O)c2ccccc21` ? 100

Any idea what kinase still bound, per cent of control was measured for `COc1ccc(CNC(=O)Nc2ncc([N+](=O)[O-])s2)cc1` ? 99

Any idea what kinase still bound, per cent of control was measured for `Cc1cnc(-c2cnc(NCCNc3ccc(C#N)cn3)nc2-c2ccc(Cl)cc2Cl)[nH]1` ? 100

Any idea what kinase still bound, per cent of control was measured for `O=C1Nc2cc(Br)ccc2/C1=C1/Nc2ccccc2/C1=N\O` ? 36

* * *

Target: FLT4 (human)
Assay: KINOMEscan competition binding
Details: compound 10.0 µM
I'd appreciate it if you could supply kinase still bound, per cent of control values for the items below.
Report as a plain number; the unit % is understood.

Missing value: kinase still bound, per cent of control, FLT4 (human), entry `COc1ccc(CNC(=O)Nc2ncc([N+](=O)[O-])s2)cc1` . Fill in? 100

Missing value: kinase still bound, per cent of control, FLT4 (human), entry `Cn1cc(C2=C(c3ccc(Cl)cc3Cl)C(=O)NC2=O)c2ccccc21` . Fill in? 97

Missing value: kinase still bound, per cent of control, FLT4 (human), entry `Cc1cnc(-c2cnc(NCCNc3ccc(C#N)cn3)nc2-c2ccc(Cl)cc2Cl)[nH]1` . Fill in? 100

Missing value: kinase still bound, per cent of control, FLT4 (human), entry `O=C1Nc2cc(Br)ccc2/C1=C1/Nc2ccccc2/C1=N\O` . Fill in? 2.5
